Field: TGI. Provide a value for each of the compounds that follow.
tested on: KM20L2 colon; test: NCI tumour cell line growth inhibition, 48 h

Bench note, KM20L2 colon: COc1ccc(N2C(=O)[C@@H]3[C@@H]4CC(C)CC[C@@H]4c4c([nH]c5ccccc45)[C@@H]3C2=O)cc1 (some centres not stated) , TGI reads > 100 µM

Bench note, KM20L2 colon: N#C/C(=C/c1ccc([N+](=O)[O-])o1)c1ccccc1 , TGI reads > 100 µM

Bench note, KM20L2 colon: COc1cccc(NC(=O)/C(CS(=O)(=O)CCC(C(C)=O)C(C)=O)=N\NC(C)(C)C)c1 , TGI reads > 100 µM

Bench note, KM20L2 colon: CSCSCC(CO)NC(=O)/C=C/c1c(C)[nH]c(=O)[nH]c1=O (configuration not stated) , TGI reads > 100 µM

Bench note, KM20L2 colon: C(=C\c1ccc2ccccc2c1Nc1ccccc1)/c1ccccc1 , TGI reads > 100 µM

Bench note, KM20L2 colon: CCn1c(=O)nc2n(-c3ccc(SC)cc3)c3ccccc3nc-2c1=O , TGI reads > 100 µM

Bench note, KM20L2 colon: CCOC(=O)C(=O)CC(=O)C(Br)C(Br)c1ccc(Cl)cc1 (configuration not stated) , TGI reads > 100 µM

Bench note, KM20L2 colon: CC(=O)O[C@H]1CSC[C@@H](OC(C)=O)C1[N+](=O)[O-] (some centres not stated) , TGI reads > 100 µM

Bench note, KM20L2 colon: O=C1OCc2nc3c(c(-c4ccccc4C(F)(F)F)c21)C(=O)OC3 , TGI reads > 100 µM

Bench note, KM20L2 colon: Cc1cc2c3ccccc3n3c2c2c1OC1(C)CCC(C2C1)C3(C)C (configuration not stated) , TGI reads > 25 µM

Bench note, KM20L2 colon: CCOC(=O)C1=C(C)N(NC(=O)Nc2ccccc2)C2(N)N(NC(=O)Nc3ccccc3)C(C)=C(C(=O)OCC)C12C#N (configuration not stated) , TGI reads 33.4 µM

Bench note, KM20L2 colon: CC(=O)OC1(C(C)=O)CC2(c3ccccc3)OC1(c1ccccc1)c1ccccc12 (configuration not stated) , TGI reads > 100 µM

* * *

tested on: SNB-19 CNS; experiment: NCI tumour cell line growth inhibition, 48 h; in the data active means GI50 below about 0.43 µM; inactive means the rest
Write down the outcome that applies. Available outcomes: active, inactive

Prompt line: State the result this test recorded for OC[C@H]1C[C@](O)(c2ccccc2Cl)[C@@H](c2ccccc2Cl)O1 .
Response line: inactive

Prompt line: State the result this test recorded for O=C(/C=C/c1ccco1)Nc1ncc(Cc2cc(Cl)ccc2Cl)s1 .
Response line: active

Prompt line: State the result this test recorded for CN1CCN(Cc2ccc(NC(=O)c3cncc(C#Cc4c(N)ncc5ccccc45)c3)cc2C(F)(F)F)CC1 .
Response line: inactive

Prompt line: State the result this test recorded for COc1cc(/C=N/NC(=O)c2cnn3c2NC(c2ccccc2)C3)ccc1OCc1ccccc1 (centres undefined) .
Response line: inactive

Prompt line: State the result this test recorded for CCOC(=O)c1c(CN2CCCCC2)nc2ccc(Cl)cc2c1-c1ccccc1 .
Response line: inactive

Prompt line: State the result this test recorded for Nc1nc(SCC#CCCl)c2[nH]cnc2n1 .
Response line: inactive

Prompt line: State the result this test recorded for CC[C@H](C)[C@H](NC(=O)CN(C)C)C(=O)N(C)[C@H](C[C@@H](OC(C)=O)c1nc(C(=O)NC23C4C5C2C2C3C4C52C(=O)OC)cs1)C(C)C (some centres undefined) .
Response line: inactive

Prompt line: State the result this test recorded for O=C(c1ccccc1)c1nn(-c2cccc(Cl)c2)c2nc3nc(-c4ccccc4)cc(=O)n3nc12 .
Response line: inactive

Prompt line: State the result this test recorded for COc1cc(C(=O)/C=C/c2c[nH]c3ccccc23)cc(OC)c1OC .
Response line: active

* * *

system: MDA-MB-435; assay: NCI tumour cell line growth inhibition, 48 h; in the data active means GI50 below about 0.43 µM; inactive means the rest
Write down the outcome that applies. Available outcomes: 1.0 for active, 0.0 for inactive

Prompt line: State the result this test recorded for CC/C(=C/c1ccc(OC)cc1)[N+](=O)[O-] .
Response line: 0.0

Prompt line: State the result this test recorded for Oc1ccccc1/C=N\NC(=S)Nc1ccc(F)cc1 .
Response line: 1.0

Prompt line: State the result this test recorded for O=C1c2ccccc2-c2cn(Cc3ccccc3)c3cccc(c23)C1c1cccnc1 (centres undefined) .
Response line: 0.0

Prompt line: State the result this test recorded for C=C(C)[C@@H]1CC[C@]2(C(=O)O)CC[C@]3(C)[C@H](CC[C@@H]4[C@@]5(C)CCC(N)C(C)(C)[C@@H]5CC[C@]43C)[C@@H]12 (some centres undefined) .
Response line: 0.0

Prompt line: State the result this test recorded for CC(C)(C)n1cc(-c2ccnc(NCCCNS(=O)(=O)c3cccc4ccccc34)c2)c(-c2cccc(O)c2)n1 .
Response line: 0.0

Prompt line: State the result this test recorded for COC(=O)c1sc(-n2cnc3cc(OC)c(OC)cc32)cc1OCc1ccccc1C(F)(F)F .
Response line: 0.0

Prompt line: State the result this test recorded for COc1cccc(/C=C\C(=O)c2ccccc2)c1 .
Response line: 0.0

Prompt line: State the result this test recorded for COc1cc(F)c(F)c(Nc2ccc(I)cc2F)c1NS(=O)(=O)C1(CC(O)CO)CC1 (centres undefined) .
Response line: 0.0

Prompt line: State the result this test recorded for CCOC(=O)c1c(CN2CCCCC2)nc2ccc(Cl)cc2c1-c1ccccc1 .
Response line: 0.0

* * *

system: A549 NSCLC; assay: NCI tumour cell line growth inhibition, 48 h; in the data active means GI50 below about 0.43 µM; inactive means the rest
Write down the outcome that applies. Available outcomes: active, inactive

Prompt line: State the result this test recorded for CCCCCCCCCC(=O)Oc1ccc(/C(=C(/C)c2ccccc2)c2ccc(OCCN3CCCC3)cc2)cc1 .
Response line: inactive

Prompt line: State the result this test recorded for CC(C)(C)n1cc(-c2ccnc(NCCCNS(=O)(=O)c3cccc4ccccc34)c2)c(-c2cccc(O)c2)n1 .
Response line: inactive

Prompt line: State the result this test recorded for O=C(/C=C/c1ccco1)Nc1ncc(Cc2cc(Cl)ccc2Cl)s1 .
Response line: active

Prompt line: State the result this test recorded for COc1ccc([C@@H]2[C@@H](Cl)C(=O)N2c2cc(OC)c(OC)c(OC)c2)cc1C .
Response line: active

Prompt line: State the result this test recorded for O=C(c1ccccc1)c1nn(-c2cccc(Cl)c2)c2nc3nc(-c4ccccc4)cc(=O)n3nc12 .
Response line: inactive

* * *

test system: HCC-2998 colon; assay: NCI tumour cell line growth inhibition, 48 h; in the data active = GI50 below about 0.43 µM; inactive = the rest
Write down the outcome that applies. Available outcomes: 1 = active, 0 = inactive

Prompt line: State the result this test recorded for C=C1C(C)C2C(Cc3ccccc3)NC(=O)C23C(OC(C)=O)C=CC(C)(O)C(=O)C(C)C/C=C/C3C1O (stereo not drawn) .
Response line: 0

Prompt line: State the result this test recorded for COC(=O)c1sc(-n2cnc3cc(OC)c(OC)cc32)cc1OCc1ccccc1C(F)(F)F .
Response line: 0

Prompt line: State the result this test recorded for COC(=O)[C@]12CC[C@@H](C)[C@H](C)[C@@H]1C1=CC[C@@H]3[C@@]4(C)C[C@@H](OC(C)=O)[C@H](OC(C)=O)[C@@](C)(COC(C)=O)[C@@H]4[C@H](O)C[C@@]3(C)[C@]1(C)CC2 .
Response line: 0

Prompt line: State the result this test recorded for O=C(O)CCCCCNCc1cc2cc3c(cc2c2cc(OCc4ccccc4)ccc12)OCO3 .
Response line: 0

Prompt line: State the result this test recorded for CC1OC(O[C@@H]2C=C3CC[C@@H]4[C@H](CC[C@]5(C)[C@@H](c6ccc(=O)oc6)CC[C@]45O)[C@@]3(C)CC2)C(O)C(O)C1O (stereo partly drawn) .
Response line: 1

Prompt line: State the result this test recorded for NS(=O)(=O)c1cccc(Nc2cc(-c3ccc(F)cc3)[nH]n2)c1 .
Response line: 0

Prompt line: State the result this test recorded for COc1cc(/C=N\Nc2ccccc2)ccc1OC(=O)c1ccccc1 .
Response line: 0

Prompt line: State the result this test recorded for CNC(=O)c1sc(-n2cnc3cc(OC)c(OC)cc32)cc1OCc1ccccc1C(F)(F)F .
Response line: 0

* * *

Field: TGI. Provide a value for each of the compounds that follow.
system: EKVX NSCLC; experiment: NCI tumour cell line growth inhibition, 48 h
The figure you give is taken to be in µM; do not add the unit.

Bench note, EKVX NSCLC: CCOC(=O)c1c(CN2CCCCC2)nc2ccc(Cl)cc2c1-c1ccccc1 , TGI reads 69.2

Bench note, EKVX NSCLC: CNC(=O)OC1/C(C)=C\C(C)C(O)C(OC)CC(C)CC2=C(OC)C(=O)C=C(C2=O)N(C)C(=O)/C(C)=C/C=C\C1OC (stereo not given) , TGI reads 24.7

* * *

tested on: HOP-92 NSCLC; test: NCI tumour cell line growth inhibition, 48 h; in the data active means GI50 below about 0.43 µM; inactive means the rest
Write down the outcome that applies. Available outcomes: label 1 (active), label 0 (inactive)

Prompt line: State the result this test recorded for CC1CCc2c(C(=O)Nc3ncc(Cc4cccc([N+](=O)[O-])c4)s3)csc2C1 (configuration not stated) .
Response line: label 0

Prompt line: State the result this test recorded for CC(C)(C)n1cc(-c2ccnc(NCCCNS(=O)(=O)c3cccc4ccccc34)c2)c(-c2cccc(O)c2)n1 .
Response line: label 0

Prompt line: State the result this test recorded for COc1cc2c(cc1O)CCN[C@@]21CS[C@H]2c3c(OC(C)=O)c(C)c4c(c3C(COC1=O)N1C2C2NC(Cc3cc(C)c(OC)c(O)c32)[C@@H]1O)OCO4 (some centres not stated) .
Response line: label 1

Prompt line: State the result this test recorded for CNC(=O)c1sc(-n2cnc3cc(OC)c(OC)cc32)cc1OCc1ccccc1C(F)(F)F .
Response line: label 0

Prompt line: State the result this test recorded for COc1cc(/C=N\Nc2ccccc2)ccc1OC(=O)c1ccccc1 .
Response line: label 0

Prompt line: State the result this test recorded for CC/C(=C/c1ccc(OC)cc1)[N+](=O)[O-] .
Response line: label 0

Prompt line: State the result this test recorded for COC(=O)c1sc(-n2cnc3cc(OC)c(OC)cc32)cc1OCc1ccccc1C(F)(F)F .
Response line: label 0
